Overview of reported MIC across a group of compounds:
- Test system: Mycobacterium tuberculosis
- ASSAY_COMMENT: Antimycobacterial activity against extensively drug resistant Mycobacterium tuberculosis Praha 1 after 14 days by micromethod
- Assay type: functional
- STUDY_CONDITIONS: Praha 1, 336 h

| COMPOUND | MIC (µM) |
| --- | --- |
| CC(=O)N[C@@H](Cc1ccccc1)C(=O)Oc1ccc(Br)cc1C(=O)Nc1ccc(C(F)(F)F)cc1 | 1 |
| NNC(=O)c1ccncc1 [ISONIAZID] | 14.6 |
| CC(=O)N[C@@H](Cc1ccccc1)C(=O)Oc1ccc(Cl)cc1C(=O)Nc1ccc(Cl)c(Cl)c1 | 1 |
| CC(=O)N[C@@H](Cc1ccccc1)C(=O)Oc1ccc(Cl)cc1C(=O)Nc1ccc(C(F)(F)F)cc1 | 1 |

* * *

# MIC listing for each entry below
- System: Mycobacterium tuberculosis
- ASSAY_COMMENT: Antimycobacterial activity against multidrug-resistant Mycobacterium tuberculosis 362/1998 after 21 days by micromethod
- Type: functional
- STUDY_CONDITIONS: 362/1998, 504 h
VALUE_TYPE: MIC (µM)

| COMPOUND_STRUCTURE_STRING | VALUE_TYPE | OBS_VALUE |
| --- | --- | --- |
| CC(=O)N[C@@H](Cc1ccccc1)C(=O)Oc1ccc(Cl)cc1C(=O)Nc1ccc(Cl)c(Cl)c1 | MIC | 2 |
| CC(=O)N[C@@H](Cc1ccccc1)C(=O)Oc1ccc(Cl)cc1C(=O)Nc1ccc(C(F)(F)F)cc1 | MIC | 1 |
| CC(=O)N[C@@H](Cc1ccccc1)C(=O)Oc1ccc(Br)cc1C(=O)Nc1ccc(C(F)(F)F)cc1 | MIC | 1 |
| NNC(=O)c1ccncc1 | MIC | 14.6 |

* * *

- Test system: Mycobacterium tuberculosis
- ASSAY_COMMENT: Antimycobacterial activity against multidrug-resistant Mycobacterium tuberculosis 9449/2007 after 21 days by micromethod
- Format: functional
- STUDY_CONDITIONS: 9449/2007, 504 h
In this section, each of the compounds is paired with its reported MIC.
VALUE_TYPE: MIC (µM)

| COMPOUND_STRUCTURE_STRING | STUDY_SYSTEM | VALUE_TYPE | READOUT_UNIT | OBS_VALUE |
| --- | --- | --- | --- | --- |
| NNC(=O)c1ccncc1 | Mycobacterium tuberculosis | MIC | µM | 58.3 |
| CC(=O)N[C@@H](Cc1ccccc1)C(=O)Oc1ccc(Br)cc1C(=O)Nc1ccc(C(F)(F)F)cc1 | Mycobacterium tuberculosis | MIC | µM | 2 |
| CC(=O)N[C@@H](Cc1ccccc1)C(=O)Oc1ccc(Cl)cc1C(=O)Nc1ccc(Cl)c(Cl)c1 | Mycobacterium tuberculosis | MIC | µM | 4 |
| CC(=O)N[C@@H](Cc1ccccc1)C(=O)Oc1ccc(Cl)cc1C(=O)Nc1ccc(C(F)(F)F)cc1 | Mycobacterium tuberculosis | MIC | µM | 2 |

Provenance of the data: ChEMBL document CHEMBL1629494
